# credit: patent US7183316B2

# System: HPV16 E7 mRNA
# assayExplanation: EGF-mediated induction of HPV16 E7 mRNA in CaSki cells (Northern blot)
# Assay type: cell-based
# experimentalConditions: Background Example 6: EGF 10 nanograms/ml; 100 μM NSAID, 25 μM 15d-PGJ2
measuredProperty: EGF-mediated induction of HPV16 E7 (Northern blot, mRNA)

Example results:
CC(C)Cc1ccc(C(C)C(=O)O)cc1 (centres unmarked)	not
COc1ccc2cc([C@H](C)C(=O)O)ccc2c1 [S-naproxen]	not
O=C(O)c1ccccc1Nc1cccc(C(F)(F)F)c1	inhibition
CSc1ccc(/C=C2/C(C)=C(CC(=O)O)c3cc(F)ccc32)cc1 [sulindac sulfide]	inhibition

Bench note, HPV16 E7 mRNA: COc1ccc2cc([C@H](C)C(=O)O)ccc2c1 [naproxen] , EGF-mediated induction of HPV16 E7 (Northern blot, mRNA) reads inhibition

---

# Tested on: HPV16 E7 mRNA
# assayExplanation: EGF-mediated induction of HPV16 E7 mRNA in CaSki cells (Northern blot)
# Assay type: cell-based
# experimentalConditions: Background Example 6: EGF 10 nanograms/ml; 100 μM NSAID, 25 μM 15d-PGJ2
measuredProperty: EGF-mediated induction of HPV16 E7 (Northern blot, mRNA)

CCCCC/C=C/C=C1/C(=O)C=C[C@@H]1C/C=C\CCCC(=O)O [15d-PGJ2, 15-deoxy-Δ12,14-prostaglandin J2]	inhibition
CN1C(C(=O)Nc2ccccn2)=C(O)c2ccccc2S1(=O)=O	not
CC1=C(CC(=O)O)c2cc(F)ccc2/C1=C\c1ccc(S(C)(=O)=O)cc1	inhibition
COc1ccc2c(c1)c(CC(=O)O)c(C)n2C(=O)c1ccc(Cl)cc1	inhibition

# EGF-mediated induction of HPV16 E7 (Northern blot, mRNA) of CC(=O)Oc1ccccc1C(=O)O = not
